- assaySystem: Recombinant human MASP2 enzyme (fragment corresponding to amino acids 297-686, C-terminal His Tag) (human, UniProt O00187 297-686)
- Sequence (O00187 other isoform, or with tags, fused parts or gaps limits assumed): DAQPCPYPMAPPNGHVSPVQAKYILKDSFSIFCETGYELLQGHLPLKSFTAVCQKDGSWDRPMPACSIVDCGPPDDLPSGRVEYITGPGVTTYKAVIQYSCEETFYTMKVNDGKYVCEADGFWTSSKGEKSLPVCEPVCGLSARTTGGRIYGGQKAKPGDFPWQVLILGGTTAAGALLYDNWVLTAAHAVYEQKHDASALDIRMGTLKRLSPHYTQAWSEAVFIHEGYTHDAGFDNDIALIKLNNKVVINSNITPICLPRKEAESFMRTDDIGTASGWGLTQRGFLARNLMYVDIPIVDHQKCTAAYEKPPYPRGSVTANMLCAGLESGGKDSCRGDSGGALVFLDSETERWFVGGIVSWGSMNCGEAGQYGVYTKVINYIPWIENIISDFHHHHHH
- assayName: cell-based or functional assay
Bridge positions count the residues as written; N and C are the ends. Square brackets hold non-standard residues; d marks the D form. Ends that are not written are not given here. * marks the point of attachment. Pro(4-spirocPr) = O=C(O)[C@@H]1CC2(CC2)CN1; C18 diacid = O=C(O)CCCCCCCCCCCCCCCCC(=O)*; Oic = O=C(O)[C@@H]1C[C@@H]2CCCC[C@@H]2N1; tBuAla = CC(C)(C)C[C@H](N)C(=O)O; PEG4 = NCCOCCOCCOCCOCCC(=O)O; Pen = CC(C)(S)[C@H](N)C(=O)O; Orn = NCCC[C@H](N)C(=O)O; Sar = CNCC(=O)O
valueType: human MASP2 IC50 (nM)
Kindly answer with a numeric value in nM, unit omitted.

Exam item: Entry [Sar]ICSRS[tBuAla]PPI[Pen]IP[PEG4]-OH (disulfide 3-11; N-terminus assumed; SMILES CC[C@H](C)[C@H](NC(=O)CNC)C(=O)N[C@H]1CSSC(C)(C)[C@@H](C(=O)N[C@H](C(=O)N2CCC[C@H]2C(=O)NCCOCCOCCOCCOCCC(=O)O)[C@@H](C)CC)NC(=O)[C@H]([C@@H](C)CC)NC(=O)[C@@H]2CCCN2C(=O)[C@@H]2CCCN2C(=O)[C@H](CC(C)(C)C)NC(=O)[C@H](CO)NC(=O)[C@H](CCCNC(=N)N)NC(=O)[C@H](CO)NC1=O) [((N-Me)G)-IC+SRS-((tBu)A)-PPI-(Pen)+IP-(PEG3(16atoms))-OH] has what human MASP2 IC50?
Marked response: 35

Exam item: Entry under review: [dA]ICSRS[tBuAla]P[Pro(4-spirocPr)]I[Pen]IP[dE]-OH (disulfide 3-11; N-terminus assumed; SMILES CC[C@H](C)[C@H](NC(=O)[C@@H](C)N)C(=O)N[C@H]1CSSC(C)(C)[C@@H](C(=O)N[C@H](C(=O)N2CCC[C@H]2C(=O)N[C@H](CCC(=O)O)C(=O)O)[C@@H](C)CC)NC(=O)[C@H]([C@@H](C)CC)NC(=O)[C@@H]2CC3(CC3)CN2C(=O)[C@@H]2CCCN2C(=O)[C@H](CC(C)(C)C)NC(=O)[C@H](CO)NC(=O)[C@H](CCCNC(=N)N)NC(=O)[C@H](CO)NC1=O) [aIC+SRS-((tBu)A)-P-((6S)-5-Azaspiro[2.4]heptane-6-carboxylic acid)-I-(Pen)+IPe-OH] . Reported human MASP2 IC50?
Marked response: 24

Exam item: Consider the binder shown here: [Sar]ICSRS[2‑Amino‑5,5,5‑trifluoro‑4‑methyl‑pentanoic acid]PPI[Pen]IPD-OH (disulfide 3-11) [((N-Me)G)-IC+SRS-(2-Amino-5,5,5-trifluoro-4-methyl-pentanoic acid)-PPI-(Pen)+IPD-OH] What is its recorded human MASP2 IC50?
Marked response: 330

Exam item: # human MASP2 IC50 lookup, item {C18 diacid}-AICSRSLP[Oic]I[Pen]IPD[Orn]-OH (disulfide 3-11; SMILES CC[C@H](C)[C@H](NC(=O)[C@H](C)NC(=O)CCCCCCCCCCCCCCCCC(=O)O)C(=O)N[C@H]1CSSC(C)(C)[C@@H](C(=O)N[C@H](C(=O)N2CCC[C@H]2C(=O)N[C@@H](CC(=O)O)C(=O)N[C@@H](CCCN)C(=O)O)[C@@H](C)CC)NC(=O)[C@H]([C@@H](C)CC)NC(=O)[C@@H]2C[C@@H]3CCCC[C@@H]3N2C(=O)[C@@H]2CCCN2C(=O)[C@H](CC(C)C)NC(=O)[C@H](CO)NC(=O)[C@H](CCCNC(=N)N)NC(=O)[C@H](CO)NC1=O) [(ODD)-AIC+SRSLP-(Oic)-I-(Pen)+IPD-(Orn)-OH]
Marked response: 1000

Data origin: patent US20210246166A1
